assayed-system: T1, biotin-labeled human CD137 fused to human IgG1 Fc fragment (human, biotin-labeled)
T1 construct: also called human CD137-Fc; biotin-human CD137-Fc; not shown: human IgG1 Fc fragment
experiment-summary: competitive ELISA on biotin-human CD137-Fc; free CD3e vs free Fc
measured-metric: Signal decrease (%)
A number alone suffices; assume %.

{"columns": ["binder", "reported-result"],
 "data": [
  ["dBBDu186/L108 (antibody, V domains shown, IgG format; constant regions not specified) VH: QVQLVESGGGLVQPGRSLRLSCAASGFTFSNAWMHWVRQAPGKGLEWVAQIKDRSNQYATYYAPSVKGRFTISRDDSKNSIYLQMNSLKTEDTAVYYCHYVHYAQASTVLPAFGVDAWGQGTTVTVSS VL: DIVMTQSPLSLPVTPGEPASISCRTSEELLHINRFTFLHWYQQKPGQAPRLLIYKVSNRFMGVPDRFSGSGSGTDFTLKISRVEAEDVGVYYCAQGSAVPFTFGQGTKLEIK", 39.2],
  ["dBBDu193/L132 (antibody, V domains shown, IgG format; constant regions not specified; also called dBBDu_193 dBBDu.L132) VH: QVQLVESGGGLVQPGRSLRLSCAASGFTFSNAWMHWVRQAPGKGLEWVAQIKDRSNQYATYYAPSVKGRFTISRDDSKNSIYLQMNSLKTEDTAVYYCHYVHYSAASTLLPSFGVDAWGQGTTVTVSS VL: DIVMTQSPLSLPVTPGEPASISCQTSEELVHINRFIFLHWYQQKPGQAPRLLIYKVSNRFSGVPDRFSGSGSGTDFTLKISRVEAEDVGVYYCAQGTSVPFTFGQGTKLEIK", 91]
]}

Now look at this one.
Kindly indicate its recorded Signal decrease. Item: dBBDu186/L106 (antibody, V domains shown, IgG format; constant regions not specified) VH: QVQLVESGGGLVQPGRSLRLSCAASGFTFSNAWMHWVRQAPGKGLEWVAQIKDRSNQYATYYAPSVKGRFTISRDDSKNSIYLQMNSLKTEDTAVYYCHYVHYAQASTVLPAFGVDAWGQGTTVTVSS VL: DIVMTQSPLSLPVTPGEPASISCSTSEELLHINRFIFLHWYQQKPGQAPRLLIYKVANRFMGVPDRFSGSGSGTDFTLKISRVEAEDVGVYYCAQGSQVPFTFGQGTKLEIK
68.7
